Quick list: inhibition in vivo at 50 mg/kg per entry.
test system: Rattus norvegicus; test: Cytoprotective activity in rat when administered 50 mg/kg perorally (Ethyl alcohol as necrotic agent); type: functional; conditions: route oral
The reply should contain only the number, in %.

>>> observed_value("Cc1nc2ccccn2c1CSCCNc1n[s+]([O-])nc1N (configuration not stated)")
2
>>> observed_value("Cc1nc2ccccn2c1CSCCNc1nsnc1N")
70
>>> observed_value("Cc1nc2c(OCc3ccccc3)cccn2c1C(C)SCCNc1n[s+]([O-])nc1N (configuration not stated)")
57
>>> observed_value("Cc1nc2ccccn2c1C(C)SCCNc1n[s+]([O-])nc1N (configuration not stated)")
47
>>> observed_value("Cc1nc2ccccn2c1C(C)SCCNc1nsnc1N (configuration not stated)")
54
>>> observed_value("Cc1nc2ccccn2c1CSCC/N=c1/c(O)c(O)c1=N")
0

Here is another molecule to look at.
[ask] GET /values?readout=inhibition in vivo at 50 mg/kg&item= Cc1nc2ccccn2c1C(C)SCC/N=c1/c(O)c(O)c1=N (configuration not stated)
[reply] 7
